Value source: ChEMBL document CHEMBL1649083

Assay System: Quinolone resistance protein NorA (Staphylococcus aureus)
Assay Explanation: Inhibition of NorA in Staphylococcus aureus 1199B assessed as reduction in ethidium bromide efflux at 50 uM by fluorimetry after 5 mins
Measure: inhibition

Past entries and their recorded results:
Molecule: CCOc1ccc(C2C(C(=O)Nc3cccnc3)=C(C)Nc3nc(CCCO)nn32)cc1OC (stereo not given)
inhibition: 14.8%
--
Molecule: CCCOc1ccc(-c2cc(=O)c3cc(OC)c(O)cc3n2C)cc1
inhibition: 9.1%
--
Molecule: CC(C)N1C(=O)S/C(=C/c2cc(Br)ccc2OCc2ccc(C(=O)O)cc2)C1=O
inhibition: 3.1%
--
Molecule: COc1ccccc1CNCc1cccc(C(F)(F)F)c1
inhibition: 30%

// `COc1cc(/C=C2\S/C(=N\c3ccccc3)N(c3ccccc3)C2=O)cc(Cl)c1OCC(N)=O` : inhibition value = 18.3%

----------
Assay System: Quinolone resistance protein NorA (Staphylococcus aureus) (UniProt P0A0J7)
Sequence (whole entry): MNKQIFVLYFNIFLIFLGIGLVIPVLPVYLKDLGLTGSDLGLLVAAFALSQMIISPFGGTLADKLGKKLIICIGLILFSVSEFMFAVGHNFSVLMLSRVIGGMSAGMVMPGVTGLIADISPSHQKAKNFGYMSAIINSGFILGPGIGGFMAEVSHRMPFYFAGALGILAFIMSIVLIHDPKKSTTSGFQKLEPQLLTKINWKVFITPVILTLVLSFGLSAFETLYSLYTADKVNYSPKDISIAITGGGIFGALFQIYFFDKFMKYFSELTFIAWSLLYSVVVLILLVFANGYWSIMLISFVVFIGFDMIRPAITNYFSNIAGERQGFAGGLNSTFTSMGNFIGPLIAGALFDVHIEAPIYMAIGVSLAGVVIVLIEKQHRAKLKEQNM
Assay Explanation: Inhibition of NorA in Staphylococcus aureus 1199B assessed as reduction in ethidium bromide efflux at 50 uM by fluorimetry after 5 mins
Measure: inhibition (%)
The response must be a number in % with no trailing unit.

Compound: N#Cc1c(C(F)(F)F)cc(Cc2ccccc2)nc1SCc1ccc(C(=O)O)cc1
Assay System: Quinolone resistance protein NorA (Staphylococcus aureus) (UniProt P0A0J7)
inhibition (%): 41.8

Compound: CN1CC[C@H](c2ccc(F)cc2)[C@@H](COc2ccc3c(c2)OCO3)C1
Assay System: Quinolone resistance protein NorA (Staphylococcus aureus) (UniProt P0A0J7)
inhibition (%): 85

// next item, inhibition requested
// CCOC(=O)C1SC(NC(=S)NC(=O)c2ccccc2)=NC1C (centres undefined) : inhibition value = 23.2

----------
Assay System: Quinolone resistance protein NorA (Staphylococcus aureus) (UniProt P0A0J7)
Assay Explanation: Inhibition of NorA in Staphylococcus aureus 1199B assessed as reduction in ethidium bromide efflux at 50 uM by fluorimetry after 5 mins
Measure: inhibition (%)
The response must be a number in % with no trailing unit.

Past entries and their recorded results:
Compound: Cc1ccc(S(=O)(=O)Nc2ccc3[nH]c(-c4ccco4)nc3c2)cc1
Measure: inhibition
Scale Unit: %
Value Reported: 67.5

Compound: CCOC(=O)c1cn(C2CC2)c2cc(N3CCC4=C(C3)/C(=N/O)C(C)CS4)c(F)cc2c1=O (configuration not stated)
Measure: inhibition
Scale Unit: %
Value Reported: 22.5

Compound: CCOC(=O)c1cn(C2CC2)c2c(C)c(N3CCC4=C(C3)/C(=N/OC)CCS4)c(N)cc2c1=O
Measure: inhibition
Scale Unit: %
Value Reported: 54.4

// CCC(C)N1C(=O)S/C(=C\c2ccc(N3CCCC3)o2)C1=O (configuration not stated) : inhibition value = 0

// `Cc1ccc(S(=O)(=O)Nc2ccc3c(c2)nc(C)n3Cc2ccccc2)cc1` : inhibition value = 30.6

----------
Assay System: Quinolone resistance protein NorA (Staphylococcus aureus) (UniProt P0A0J7)
Sequence (whole entry): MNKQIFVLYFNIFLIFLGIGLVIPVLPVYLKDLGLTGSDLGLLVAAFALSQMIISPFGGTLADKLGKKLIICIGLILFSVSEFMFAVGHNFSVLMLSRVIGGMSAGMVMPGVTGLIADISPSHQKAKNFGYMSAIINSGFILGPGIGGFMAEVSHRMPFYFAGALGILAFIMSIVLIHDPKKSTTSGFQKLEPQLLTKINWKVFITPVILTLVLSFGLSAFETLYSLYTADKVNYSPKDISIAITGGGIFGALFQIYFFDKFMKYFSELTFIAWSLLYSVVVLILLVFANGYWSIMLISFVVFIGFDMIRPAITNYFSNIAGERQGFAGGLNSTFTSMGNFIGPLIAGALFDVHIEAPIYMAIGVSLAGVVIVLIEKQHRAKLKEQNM
Assay Explanation: Inhibition of NorA in Staphylococcus aureus 1199B assessed as reduction in ethidium bromide efflux at 50 uM by fluorimetry after 5 mins
Label scheme, based on inhibition: b0 = under 4%, b1 = from 4% up to 40%, b2 = 40% and over

Compound: COc1cc(/C=C2/SC(Nc3ccccc3F)=NC2=O)ccc1OCC(=O)O
Assigned Category: b1
--
Compound: CCC(C)N1C(=O)S/C(=C\c2ccc(-c3cc(C(=O)O)ccc3Cl)o2)C1=O (configuration not stated)
Assigned Category: b2
--
Compound: CCCOc1ccc(C2=CSc3ccccc3N2C)cc1
Assigned Category: b0

For the record `CN1C(=O)S/C(=C/c2ccc(-c3cc(C(=O)O)ccc3Cl)o2)C1=O` , report the class its inhibition corresponds to.
b1

For the record `N#Cc1c(SCc2ccc(Cl)nc2)nc2c(c1C(F)(F)F)CCCC2` , report the class its inhibition corresponds to.
b2

For the record `CC(C)Oc1ccc(-c2cc(=O)c3ccccc3n2C)cc1` , report the class its inhibition corresponds to.
b1

For the record CCOC(=O)c1cn(C2CC2)c2cc(N3CCC4=C(C3)/C(=N/OC)C(C)CS4)c(N)cc2c1=O (configuration not stated) , report the class its inhibition corresponds to.
b1

For the record COc1ccc(OC[C@@H]2CN(C)CC[C@H]2c2ccccc2)cc1 (relative stereo) , report the class its inhibition corresponds to.
b2

For the record `CCc1c(O)nc(SCC(=O)Nc2nc3ccccc3s2)[nH]c1=O` , report the class its inhibition corresponds to.
b1

For the record `COCCN1C(=O)/C(=C/c2ccc(O[C@@H](C)C(=O)O)c(OC)c2)S/C1=N\c1ccccc1` , report the class its inhibition corresponds to.
b1

For the record `N#Cc1c(SCc2ccc(C(=O)O)cc2)nc2c(c1C(F)(F)F)CCCCC2` , report the class its inhibition corresponds to.
b2

For the record NS(=O)(=O)c1ccc(NC2=NC(=O)C(CC(=O)O)S2)cc1 (configuration not stated) , report the class its inhibition corresponds to.
b0

For the record `OCCN1CCN(CCCN2c3ccccc3Sc3ccc(C(F)(F)F)cc32)CC1` , report the class its inhibition corresponds to.
b2

For the record `Fc1ccc([C@@H]2CCNC[C@H]2COc2ccc3c(c2)OCO3)cc1` , report the class its inhibition corresponds to.
b2

----------
Assay System: Quinolone resistance protein NorA (Staphylococcus aureus) (UniProt P0A0J7)
Assay Explanation: Inhibition of NorA in Staphylococcus aureus 1199B assessed as reduction in ethidium bromide efflux at 50 uM by fluorimetry after 5 mins
Measure: inhibition (%)
The response must be a number in % with no trailing unit.

Compound: COc1ccc(OC[C@H]2CN(C)CC[C@@H]2c2ccccc2)cc1
inhibition [%]: 47
--
Compound: C=CCOc1c(I)cc(/C=C2\C(=O)N(c3ccc(C(=O)O)cc3)N=C2c2ccccc2)cc1OC
inhibition [%]: 3.8
--
Compound: CCOC(=O)CCCSc1nc2c(c(C(F)(F)F)c1C#N)CC(C)CC2 (stereo not drawn)
inhibition [%]: 48.6

// COc1cccc(CNC(C)C(O)c2ccccc2)c1 (stereo not drawn) : inhibition value = 2.8

// `Cc1ccc([C@H]2C(C#N)=C(N)Oc3cc(C)oc(=O)c32)o1` : inhibition value = 0

// `Cc1sc([C@@H]2C(C#N)=C(N)OC3=C2C(=O)CC(C)(C)C3)cc1COc1ccc(Br)cc1` : inhibition value = 0

// `Cn1c(-c2ccc(OCCN3CCOCC3)cc2)cc(=O)c2ccccc21` : inhibition value = 0

// `CN(C)CCOc1ccc(-c2cc(=O)c3ccccc3n2C)cc1` : inhibition value = 4.4

----------
Assay System: Quinolone resistance protein NorA (Staphylococcus aureus) (UniProt P0A0J7)
Assay Explanation: Inhibition of NorA in Staphylococcus aureus 1199B assessed as reduction in ethidium bromide efflux at 50 uM by fluorimetry after 5 mins
Measure: inhibition (%)
The response must be a number in % with no trailing unit.

Smiles Entry: CCOC(=O)Nc1ccc2c(c1)N(C(=O)CCN1CCN(CCO)CC1)c1ccccc1CC2
inhibition / %: 0
--
Smiles Entry: Cn1c(-c2ccc(O)cc2)cc(=O)c2cc(O)c(O)cc21
inhibition / %: 0
--
Smiles Entry: O=C(CSc1nnc(CNc2ccc(F)cc2)o1)N1c2ccccc2Sc2ccccc21
inhibition / %: 11.5

// `CCOC(=O)c1cn(C2CC2)c2cc(N3CCC4=C(C3)C(=O)CCS4)c(N)cc2c1=O` : inhibition value = 35.7
